Values were extracted from PubChem BioAssay AID1852.

- protocol: TNF-a-driven NF-kB reporter inhibitors, primary screen, selectivity assay for NOD1/NOD2 signaling inhibitor project, cell-based, HEK293T NF-kB-Luc, luminescence (AID 1852)
- conditionDescription: TNF-a induced, 14 h, at 4 µM, hits give high values
In all, about 2,500 compounds went through this assay and about 1,100 (44%) were called active. So high a share suggests a set chosen from earlier hits. The list shows a part of the results.
Everything with inhibition lower than 50% is not satisfied; everything else, including exactly 50%, is satisfied.

{"columns": ["compoundStructure", "labelClass"],
 "data": [
  ["O=C(NCc1ccco1)c1sc(=S)n2c1[nH]c(=O)c1ccccc12", "satisfied"]
]}

Say whether Cc1ccc(-n2[nH]c3c4c(ccc3c2=O)C(=O)c2ccccc2C4=O)cc1 shows inhibition of 50% or more.
satisfied

Say whether CN1/C(=C/c2cc[n+](C)c3ccccc23)C=Cc2ccccc21 shows inhibition of 50% or more.
not satisfied

Say whether COCCn1c(SCC(=O)N2CCc3ccccc3C2)nc2cc(Cl)ccc2c1=O shows inhibition of 50% or more.
not satisfied

Say whether O=C(CSc1nnc2ccc3ccccc3n12)N1CCOCC1 shows inhibition of 50% or more.
not satisfied
